These data points were gathered from patent US12384770B2.

Could you please report measured HDAC6 inhibitory rate (%) (10 μM) for the items listed next?
- TARGET_OF_ASSAY: HDAC6 enzyme (Homo sapiens)
- Construct: HDAC6 enzyme prepared by transducing full length HDAC6 gene into Sf-9 insect cells; GST; purchased SignalChem; host or cells: Sf-9 insect cells
- Sequence (Q9UBN7 1-1215): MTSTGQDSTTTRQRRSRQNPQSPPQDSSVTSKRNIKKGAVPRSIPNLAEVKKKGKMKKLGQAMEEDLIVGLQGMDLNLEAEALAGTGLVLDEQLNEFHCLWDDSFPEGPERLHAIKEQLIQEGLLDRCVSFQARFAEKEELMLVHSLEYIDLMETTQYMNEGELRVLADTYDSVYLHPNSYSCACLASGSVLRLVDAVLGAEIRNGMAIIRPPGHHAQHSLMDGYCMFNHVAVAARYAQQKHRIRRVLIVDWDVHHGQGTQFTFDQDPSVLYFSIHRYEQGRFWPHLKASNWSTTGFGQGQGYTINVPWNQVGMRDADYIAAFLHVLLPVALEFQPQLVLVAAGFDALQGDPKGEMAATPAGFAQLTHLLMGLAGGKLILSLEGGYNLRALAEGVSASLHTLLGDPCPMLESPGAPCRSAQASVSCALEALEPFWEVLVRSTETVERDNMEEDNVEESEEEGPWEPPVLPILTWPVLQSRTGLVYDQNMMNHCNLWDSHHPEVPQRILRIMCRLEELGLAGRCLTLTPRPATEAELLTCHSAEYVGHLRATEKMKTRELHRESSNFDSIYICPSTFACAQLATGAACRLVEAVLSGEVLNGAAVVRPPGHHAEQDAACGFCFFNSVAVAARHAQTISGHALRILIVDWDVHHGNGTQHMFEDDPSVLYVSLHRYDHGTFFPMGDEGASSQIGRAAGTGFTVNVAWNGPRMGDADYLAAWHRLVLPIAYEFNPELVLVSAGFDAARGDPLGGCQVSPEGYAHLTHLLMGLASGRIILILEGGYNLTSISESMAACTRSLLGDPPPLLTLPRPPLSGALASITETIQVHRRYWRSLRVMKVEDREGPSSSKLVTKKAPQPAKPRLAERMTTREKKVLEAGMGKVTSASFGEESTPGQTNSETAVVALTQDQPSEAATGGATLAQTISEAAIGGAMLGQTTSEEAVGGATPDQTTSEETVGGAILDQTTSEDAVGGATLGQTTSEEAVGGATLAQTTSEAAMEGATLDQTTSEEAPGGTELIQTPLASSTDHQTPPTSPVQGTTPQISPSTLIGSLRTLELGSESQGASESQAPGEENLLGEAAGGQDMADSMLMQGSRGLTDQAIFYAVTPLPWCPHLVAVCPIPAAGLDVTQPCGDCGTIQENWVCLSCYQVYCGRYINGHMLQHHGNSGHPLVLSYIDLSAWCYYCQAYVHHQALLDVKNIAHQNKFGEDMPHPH
- MEASUREMENT_NOTES: HDAC6 enzyme inhibitory assay (HDAC-Glo I/II Assay kit)
- Format: biochemical
- MEASUREMENT_CONTEXT: wells without enzyme = 100% inhibition, 10 µM
- Method: Experimental Example 1 HDAC6 Enzyme Inhibitory Assay HDAC6 enzyme prepared by transducing full length HDAC6 gene into Sf-9 insect cells and purifying by GST affinity column were purchased from SignalChem. Using this enzyme, HDAC6 enzyme inhibitory activity of the compound of the present invention were evaluated. […] HDAC6 enzyme inhibitory activity of the compound of the present invention was measured using HDAC-Glo™ I/II Assay kit (Promega) according to the following experimental method. […]
Give bare numbers, in %.

O=C1c2cc(-c3nnc(C(F)F)o3)ccc2CN1[C@H](c1ccc(F)cn1)[C@@H](O)c1ccc(F)cn1 [Example 5]    99

Quick batch: HDAC6 inhibitory rate (%) (10 μM) for everything below.
1. O=C1c2cc(-c3nnc(C(F)F)o3)ccc2CN1[C@H](c1cccc(F)n1)[C@@H](O)c1cccc(F)n1 (single isomer, unassigned) [Example 118]
2. O=C1c2cc(-c3nnc(C(F)F)o3)ccc2CN1[C@H](c1ccc(F)cn1)[C@@H](O)c1cccc(F)n1 (single isomer, unassigned) [Example 67]
3. O=C1c2cc(-c3nnc(C(F)F)o3)ccc2CN1[C@H](c1ccc(F)cc1)[C@@H](O)c1cccnc1 (single isomer, unassigned) [Example 52]
4. O=C1c2cc(-c3nnc(C(F)F)o3)ccc2CN1[C@H](c1ncccn1)[C@@H](O)c1ccc(F)c(F)c1 (single isomer, unassigned) [Example 95]

[A]
1. 102
2. 99
3. 100
4. 99

// each compound listed below needs its HDAC6 inhibitory rate (%) (10 μM)
1. O=C1c2cc(-c3nnc(C(F)F)o3)ccc2CN1[C@H](c1ccccn1)[C@@H](O)c1ccc(Cl)cn1 (single isomer, unassigned) [Example 113]
2. O=C1c2cc(-c3nnc(C(F)F)o3)ccc2CN1[C@H](C1CCOCC1)[C@@H](O)c1ccc(Cl)cc1 (single isomer, unassigned) [Example 84]
3. O=C1c2cc(-c3nnc(C(F)F)o3)ccc2CN1[C@H](C1CC1)[C@@H](O)c1cccc(Cl)n1 (single isomer, unassigned) [Example 130]
4. O=C1c2cc(-c3nnc(C(F)F)o3)ccc2CN1[C@H](c1ccccn1)[C@@H](O)c1ccc(C(F)(F)F)cn1 (single isomer, unassigned) [Example 105]

[A]
100
100
98
99
